# experimental target: hA1 (Homo sapiens)
# Sequence (P30542 1-326): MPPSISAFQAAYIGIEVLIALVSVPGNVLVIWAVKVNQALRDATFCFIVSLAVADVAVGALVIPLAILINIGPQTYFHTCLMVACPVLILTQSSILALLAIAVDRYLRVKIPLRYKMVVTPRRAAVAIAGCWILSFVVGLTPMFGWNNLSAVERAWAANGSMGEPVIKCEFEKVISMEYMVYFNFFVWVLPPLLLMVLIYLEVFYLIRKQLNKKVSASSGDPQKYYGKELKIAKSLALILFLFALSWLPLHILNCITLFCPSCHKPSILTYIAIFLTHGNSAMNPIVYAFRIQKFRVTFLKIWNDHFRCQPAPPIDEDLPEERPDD
property label: pKi
Keep in mind that pKi stands for -log10 of concentration in molar terms.

QUERY: Annotate the compound COC[C@@H]1CCCN1C(=O)c1cc(N)c2nc(-c3ccc(Br)o3)nn2c1 [Example 16] with its measured pKi.
RESULT: 5.98
